Data provenance: patent US10857105B2

Quick list: concentration at 24 h per entry.
# PROTOCOL NOTES: Lipid clearance: mouse liver tissue level and % dose remaining in liver after intravenous administration
# Type: in vivo
# EXPERIMENTAL CONTEXT: mouse, liver, 0.5 mg/kg, 24 h
The answer is to be given in ng/g; state only the numeric part.

The molecule listed as CCCCCCCCCOC(=O)C(C)CCCCCCN(CCO)CCCCCCCC(=O)OC(CCCCCCCC)CCCCCCCC (stereo not shown) has a reported concentration at 24 h of 24200

---

Overview of reported concentration at 6 h across a group of compounds:
# PROTOCOL NOTES: Lipid clearance: mouse liver tissue level and % dose remaining in liver after intravenous administration
# Assay type: in vivo
# EXPERIMENTAL CONTEXT: mouse, liver, 0.5 mg/kg, 6 h
Number in ng/g, nothing else.

Reference set, count: 2
CCCCCCCCC(CCCCCCCC)OC(=O)CCCCCCCN(CCO)C(C)CCCCCCCCOC(=O)CCCCCCC (centres unmarked) [Compound 161] | 187
CCCCCCCCCC(=O)OC(C)CCCCCCN(CCO)CCCCCCCC(=O)OC(CCCCCCCC)CCCCCCCC (centres unmarked) [Compound 98] | 24800

get_value(item= CCCCCCCCC(CCCCCCCC)OC(=O)CCCCCCCN(CCO)CCCCCCCC(=O)OCC(C)CCCCCCC (centres unmarked) [Compound 184] , readout=concentration at 6 h) returns 260

Summary for this compound, CCCCCCCCCOC(=O)CCCCCCCN(CCO)CCCCCCCC(=O)OC(COCCCCCC)COCCCCCC [Compound 183] : concentration at 6 h is 69.9

Kindly note the recorded concentration at 6 h for CCCCCCCCCOC(=O)C(C)CCCCCCN(CCO)CCCCCCCC(=O)OC(CCCCCCCC)CCCCCCCC (centres unmarked) [Compound 164] , which is 36000

What the record says about CCCCCCCCCOC(=O)CCCCCCCN(CCO)CCCCCCCC(=O)OC(CCC1CC1CCCC)CCC1CC1CCCC (centres unmarked) [Compound 160] : concentration at 6 h is 51.5

# concentration at 6 h (compound: CCCCCCCCCCCOC(=O)CCCCCN(CCO)CCCCCC(=O)OC(CCCCCCCCCC)CCCCCCCCCC [Compound 185] ) is 31200

// sample CCCCCCCCC(CCCCCCCC)C(=O)OCCCCCCCN(CCO)C(C)CCCCCCCCOC(=O)CCCCCCC (centres unmarked) [Compound 162] , its concentration at 6 h was 261

concentration at 6 h reading for CCCCCCCCC(CCCCCCCC)OC(=O)CCCCCCCN(CCO)CCCCCCCC(=O)O[C@H](C)CCCCCCCC [Compound 172] : 16000

For CCCCCCCCCOC(=O)C(C)CCCCCCN(CCO)CCCCCCCOC(=O)C(CCCCCCCC)CCCCCCCC (centres unmarked) [Compound 163] the compound record lists concentration at 6 h as 32100

Per the record, CCCCCC=CCC=CCCCCCCCCC(CCCCCCCCC=CCC=CCCCCC)OC(=O)CCCN(C)C (centres unmarked) [MC3, reference compound] has concentration at 6 h of 85400

The recorded concentration at 6 h for entry CCCCCCCCCC(=O)OC(C)CCCCCCN(CCO)CCCCCCCOC(=O)C(CCCCCCCC)CCCCCCCC (centres unmarked) [Compound 165] equals 26900

So for CCCCCCCOC(=O)CCCCCCCCCN(CCO)CCCCCCCCCC(=O)OC(CCCCCC)CCCCCC [Compound 186] , the logged concentration at 6 h turned out to be 42.8

The compound listed as CCCCCCCCCC(C)(O)CCCCCCCCN(CCO)CCCCCCCC(=O)OC(CCCCCCCC)CCCCCCCC (centres unmarked) [Compound 171] has a reported concentration at 6 h of 47000
